assay-text: Exposure in 26-week repeated dose toxicity study (mesylate monohydrate)
Assay type: in vivo
particulars: female, rat, in vivo, 10 mg/kg/day, rats, F, week 13, 26-week toxicity study
reported-property: Cmax (ng/mL)
Number only, in ng/mL; omit the unit.

Could you please provide reported Cmax for CS(=O)(=O)O.Cc1nc(N(C)C(=O)Cc2ccc(-c3ccccn3)cc2)sc1S(N)(=O)=O.O [Mesylate monohydrate] ? Thanks!
26000

====

assay-text: Exposure in 26-week repeated dose toxicity study (mesylate monohydrate)
Type: in vivo
particulars: female, rat, in vivo, 50 mg/kg/day, rats, F, 50 mg/kg/day, day 1, 26-week toxicity study; read-out: AUC(0-24)
reported-property: AUC(0-t) (µg·h/mL)
Number only, in µg·h/mL; omit the unit.

Could you please provide reported AUC(0-t) for CS(=O)(=O)O.Cc1nc(N(C)C(=O)Cc2ccc(-c3ccccn3)cc2)sc1S(N)(=O)=O.O [Mesylate monohydrate] ? Thanks!
913

====

assay-text: Exposure in 26-week repeated dose toxicity study (mesylate monohydrate)
Assay type: in vivo
particulars: female, rat, in vivo, 50 mg/kg/day, rats, F, 50 mg/kg/day, week 13, 26-week toxicity study; read-out: AUC(0-24)
reported-property: AUC(0-t) (µg·h/mL)
Number only, in µg·h/mL; omit the unit.

Could you please provide reported AUC(0-t) for CS(=O)(=O)O.Cc1nc(N(C)C(=O)Cc2ccc(-c3ccccn3)cc2)sc1S(N)(=O)=O.O [Mesylate monohydrate] ? Thanks!
1210

====

assay-text: Exposure in 26-week repeated dose toxicity study (mesylate monohydrate)
Type: in vivo
particulars: male, rat, in vivo, 10 mg/kg/day, rats, M, 10 mg/kg/day, day 1, 26-week toxicity study
reported-property: Cmax (ng/mL)
Number only, in ng/mL; omit the unit.

Could you please provide reported Cmax for CS(=O)(=O)O.Cc1nc(N(C)C(=O)Cc2ccc(-c3ccccn3)cc2)sc1S(N)(=O)=O.O [Mesylate monohydrate] ? Thanks!
16900

====

assay-text: Exposure in repeated dose 13-week toxicity study (free base)
particulars: female, rat, in vivo, 250 mg/kg/day, rats, F, 250 mg/kg/day, day 1, 13-week toxicity study; read-out: AUC(0-24)
reported-property: AUC(0-t) (µg·h/mL)
Number only, in µg·h/mL; omit the unit.

Could you please provide reported AUC(0-t) for Cc1nc(N(C)C(=O)Cc2ccc(-c3ccccn3)cc2)sc1S(N)(=O)=O [Free base] ? Thanks!
966

====

assay-text: Exposure in 26-week repeated dose toxicity study (mesylate monohydrate)
Assay type: in vivo
particulars: female, rat, in vivo, 10 mg/kg/day, rats, F, 10 mg/kg/day, day 1, 26-week toxicity study; read-out: AUC(0-24)
reported-property: AUC(0-t) (µg·h/mL)
Number only, in µg·h/mL; omit the unit.

Could you please provide reported AUC(0-t) for CS(=O)(=O)O.Cc1nc(N(C)C(=O)Cc2ccc(-c3ccccn3)cc2)sc1S(N)(=O)=O.O [Mesylate monohydrate] ? Thanks!
175

====

assay-text: Exposure in 26-week repeated dose toxicity study (mesylate monohydrate)
Format: in vivo
particulars: male, rat, in vivo, 10 mg/kg/day, rats, M, 10 mg/kg/day, week 13, 26-week toxicity study; read-out: AUC(0-24)
reported-property: AUC(0-t)
Don't forget the unit after the value.

Could you please provide reported AUC(0-t) for CS(=O)(=O)O.Cc1nc(N(C)C(=O)Cc2ccc(-c3ccccn3)cc2)sc1S(N)(=O)=O.O [Mesylate monohydrate] ? Thanks!
227 µg·h/mL

====

assay-text: Exposure in repeated dose 13-week toxicity study (free base)
particulars: male, rat, in vivo, 50 mg/kg/day, rats, M, 50 mg/kg/day, day 1, 13-week toxicity study; read-out: AUC(0-24)
reported-property: AUC(0-t) (µg·h/mL)
Number only, in µg·h/mL; omit the unit.

Could you please provide reported AUC(0-t) for Cc1nc(N(C)C(=O)Cc2ccc(-c3ccccn3)cc2)sc1S(N)(=O)=O [Free base] ? Thanks!
248

====

assay-text: Exposure in 26-week repeated dose toxicity study (mesylate monohydrate)
Assay type: in vivo
particulars: male, rat, in vivo, 10 mg/kg/day, rats, M, week 13, 26-week toxicity study
reported-property: Cmax (ng/mL)
Number only, in ng/mL; omit the unit.

Could you please provide reported Cmax for CS(=O)(=O)O.Cc1nc(N(C)C(=O)Cc2ccc(-c3ccccn3)cc2)sc1S(N)(=O)=O.O [Mesylate monohydrate] ? Thanks!
21800

====

assay-text: Exposure in repeated dose 13-week toxicity study (free base)
particulars: female, rat, in vivo, 50 mg/kg/day, rats, F, week 13, 13-week toxicity study
reported-property: Cmax
Don't forget the unit after the value.

Could you please provide reported Cmax for Cc1nc(N(C)C(=O)Cc2ccc(-c3ccccn3)cc2)sc1S(N)(=O)=O [Free base] ? Thanks!
40500 ng/mL

====

assay-text: Exposure in 26-week repeated dose toxicity study (mesylate monohydrate)
Type: in vivo
particulars: female, rat, in vivo, 10 mg/kg/day, rats, F, 10 mg/kg/day, week 13, 26-week toxicity study; read-out: AUC(0-24)
reported-property: AUC(0-t)
Don't forget the unit after the value.

Could you please provide reported AUC(0-t) for CS(=O)(=O)O.Cc1nc(N(C)C(=O)Cc2ccc(-c3ccccn3)cc2)sc1S(N)(=O)=O.O [Mesylate monohydrate] ? Thanks!
321 µg·h/mL

====

assay-text: Exposure in repeated dose 13-week toxicity study (free base)
particulars: female, rat, in vivo, 50 mg/kg/day, rats, F, 50 mg/kg/day, day 1, 13-week toxicity study; read-out: AUC(0-24)
reported-property: AUC(0-t) (µg·h/mL)
Number only, in µg·h/mL; omit the unit.

Could you please provide reported AUC(0-t) for Cc1nc(N(C)C(=O)Cc2ccc(-c3ccccn3)cc2)sc1S(N)(=O)=O [Free base] ? Thanks!
409

====

assay-text: Exposure in repeated dose 13-week toxicity study (free base)
particulars: male, rat, in vivo, 50 mg/kg/day, rats, M, 50 mg/kg/day, week 13, 13-week toxicity study; read-out: AUC(0-24)
reported-property: AUC(0-t) (µg·h/mL)
Number only, in µg·h/mL; omit the unit.

Could you please provide reported AUC(0-t) for Cc1nc(N(C)C(=O)Cc2ccc(-c3ccccn3)cc2)sc1S(N)(=O)=O [Free base] ? Thanks!
332

====

assay-text: Exposure in 26-week repeated dose toxicity study (mesylate monohydrate)
Assay type: in vivo
particulars: female, rat, in vivo, 250 mg/kg/day, rats, F, 250 mg/kg/day, week 13, 26-week toxicity study; read-out: AUC(0-24)
reported-property: AUC(0-t)
Don't forget the unit after the value.

Could you please provide reported AUC(0-t) for CS(=O)(=O)O.Cc1nc(N(C)C(=O)Cc2ccc(-c3ccccn3)cc2)sc1S(N)(=O)=O.O [Mesylate monohydrate] ? Thanks!
3580 µg·h/mL

====

assay-text: Exposure in repeated dose 13-week toxicity study (free base)
particulars: male, rat, in vivo, 10 mg/kg/day, rats, M, 10 mg/kg/day, day 1, 13-week toxicity study
reported-property: Cmax (ng/mL)
Number only, in ng/mL; omit the unit.

Could you please provide reported Cmax for Cc1nc(N(C)C(=O)Cc2ccc(-c3ccccn3)cc2)sc1S(N)(=O)=O [Free base] ? Thanks!
13300

====

assay-text: Exposure in repeated dose 13-week toxicity study (free base)
particulars: male, rat, in vivo, 50 mg/kg/day, rats, M, week 13, 13-week toxicity study
reported-property: Cmax (ng/mL)
Number only, in ng/mL; omit the unit.

Could you please provide reported Cmax for Cc1nc(N(C)C(=O)Cc2ccc(-c3ccccn3)cc2)sc1S(N)(=O)=O [Free base] ? Thanks!
30000

====

assay-text: Exposure in 26-week repeated dose toxicity study (mesylate monohydrate)
Assay type: in vivo
particulars: female, rat, in vivo, 250 mg/kg/day, rats, F, week 13, 26-week toxicity study
reported-property: Cmax (µg/mL)
Number only, in µg/mL; omit the unit.

Could you please provide reported Cmax for CS(=O)(=O)O.Cc1nc(N(C)C(=O)Cc2ccc(-c3ccccn3)cc2)sc1S(N)(=O)=O.O [Mesylate monohydrate] ? Thanks!
217

====

assay-text: Exposure in repeated dose 13-week toxicity study (free base)
particulars: male, rat, in vivo, 10 mg/kg/day, rats, M, week 13, 13-week toxicity study
reported-property: Cmax
Don't forget the unit after the value.

Could you please provide reported Cmax for Cc1nc(N(C)C(=O)Cc2ccc(-c3ccccn3)cc2)sc1S(N)(=O)=O [Free base] ? Thanks!
15000 ng/mL

====

assay-text: Exposure in 26-week repeated dose toxicity study (mesylate monohydrate)
Format: in vivo
particulars: male, rat, in vivo, 50 mg/kg/day, rats, M, 50 mg/kg/day, week 13, 26-week toxicity study; read-out: AUC(0-24)
reported-property: AUC(0-t)

Could you please provide reported AUC(0-t) for CS(=O)(=O)O.Cc1nc(N(C)C(=O)Cc2ccc(-c3ccccn3)cc2)sc1S(N)(=O)=O.O [Mesylate monohydrate] ? Thanks!
959 µg·h/mL

====

assay-text: Exposure in 26-week repeated dose toxicity study (mesylate monohydrate)
Assay type: in vivo
particulars: male, rat, in vivo, 50 mg/kg/day, rats, M, week 13, 26-week toxicity study
reported-property: Cmax (µg/mL)
Number only, in µg/mL; omit the unit.

Could you please provide reported Cmax for CS(=O)(=O)O.Cc1nc(N(C)C(=O)Cc2ccc(-c3ccccn3)cc2)sc1S(N)(=O)=O.O [Mesylate monohydrate] ? Thanks!
74.7
